Target: Urease (Canavalia ensiformis)
Sequence (P07374 whole entry): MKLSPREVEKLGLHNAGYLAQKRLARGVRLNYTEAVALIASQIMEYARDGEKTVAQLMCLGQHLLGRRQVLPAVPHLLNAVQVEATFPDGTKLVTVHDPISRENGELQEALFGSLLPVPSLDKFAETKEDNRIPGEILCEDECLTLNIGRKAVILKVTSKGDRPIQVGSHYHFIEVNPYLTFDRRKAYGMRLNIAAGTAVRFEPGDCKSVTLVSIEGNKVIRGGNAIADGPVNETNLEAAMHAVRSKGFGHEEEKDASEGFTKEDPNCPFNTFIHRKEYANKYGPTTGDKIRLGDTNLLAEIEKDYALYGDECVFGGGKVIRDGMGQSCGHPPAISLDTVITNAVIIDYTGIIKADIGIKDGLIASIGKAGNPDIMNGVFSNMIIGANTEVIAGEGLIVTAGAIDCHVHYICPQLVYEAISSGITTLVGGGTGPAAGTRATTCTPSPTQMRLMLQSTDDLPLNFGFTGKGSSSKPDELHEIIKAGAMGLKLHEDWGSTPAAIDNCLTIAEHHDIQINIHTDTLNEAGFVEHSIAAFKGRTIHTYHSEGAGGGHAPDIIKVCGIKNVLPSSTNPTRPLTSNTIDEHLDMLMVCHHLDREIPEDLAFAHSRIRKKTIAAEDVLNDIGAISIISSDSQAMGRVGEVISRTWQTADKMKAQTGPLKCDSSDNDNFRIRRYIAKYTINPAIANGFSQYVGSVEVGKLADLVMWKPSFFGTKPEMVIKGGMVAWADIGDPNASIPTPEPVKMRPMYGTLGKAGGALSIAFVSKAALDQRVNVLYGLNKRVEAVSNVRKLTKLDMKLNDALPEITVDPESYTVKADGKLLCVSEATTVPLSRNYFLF
Assay: Inhibition of jack bean urease using urea as substrate assessed as ammonia production after 15 mins by indophenol method
Conditions: read-out: IC50
Below, each entry is listed with its recorded IC50.

record-smiles	unit	IC50
Fc1ccc(NC(=S)Nc2cccc(Cl)c2)cc1F	µM	16.3
S=C(Nc1ccccc1)Nc1ccccn1	µM	23.4
COc1ccccc1NC(=S)Nc1cccc(Cl)c1	µM	20.1
Cc1ccc(C)c(NC(=S)Nc2cccc(Cl)c2)c1	µM	20.9
S=C(NCc1ccco1)Nc1ccccc1	µM	32.4
